study-system: T1, human Claudin18.2 protein (P50251802, GenScript) (human, UniProt P56856-2 1-261, limits assumed)
T1 construct: also called human CLDN18.2
assay-remarks: SPR (Biacore T200), human Claudin18.2 amine-coupled to the chip, antibody 0-100 nM in the mobile phase, 1:1 model
Text: According to the manufacturer's instructions, human Claudin18.2 (GenScrip, P50251802) was coupled to the surface of a CMS chip (GE Healthcare, 29-1496-03) using the amino coupling kit (GE Healthcare, BR-1006-33), and the remaining activation sites were blocked by injection of 1 M ethanolamine after coupling. […]
Some binders, each annotated with its measured koff.
The response must be a number in s⁻¹ with no trailing unit.

Some binders with known koff results, for comparison:
binder	recorded-value
Hz25C7 (antibody, human IgG1, kappa, V domains shown) VH: EVQLVESGGGLVQPGGSLRLSCAASGFTFSDYGMAWVRQAPGKGLEWVAFINNLAYSIYYVDTVTGRFTISRDNAKNSLYLQMNSLRAEDTAVYYCARFTTGNVMDYWGQGTLVTVSS VL: DIVMTQSPDSLAVSLGERATINCKSSQSLLQGGNQKNYLTWYQQKPGQPPKLLIYWSSTRESGVPDRFSGSGSGTDFTLTISSLQAEDVAVYYCQNSYSYPLTFGGGTKVEIKR	0.00114
Hz14A5 (antibody, human IgG1, kappa, V domains shown) VH: QVQLQESGPGLVKPSETLSLTCTVSGFSLNSYGVGWIRQPPGKGLEWIGVIWGDVSTNYHSVLISRVTISKDTSKNQVSLKLSSVTAADTAVYYCARITRGNAMDYWGQGTLVTVSS VL: DIVMTQSPDSLAVSLGERATINCKSSQSLLNSGNQRNYLTWYQQKPGQPPKLLIYWASTRKSGVPDRFSGSGSGTDFTLTISSLQAEDVAVYYCQNNYLFPLTFGGGTKVEIKR	0.000208

Return reported koff; argument: Hz69H9 (antibody, human IgG1, kappa, V domains shown) VH: QVQLVQSGAEVKKPGSSVKVSCKASGYSFSSYNIHWVRQAPGQGLEWMGYIAPFQGDSRYNQKFKGRVTITADKSTSTAYMELSSLRSEDTAVYYCARLNRGNSLDYWGQGTLVTVSS VL: DIVMTQSPDSLAVSLGERATINCKSSQSLFNSGNQRNYLTWYQQKPGQPPKLLIYWASTRESGVPDRFSGSGSGTDFTLTISSLQAEDVAVYYCQNNYIYPLTFGGGTKVEIKR
0.000116
